Data provenance: patent US8110550B2

- Tested on: ER- MDA-MB-231 cells
- experiment.description: MTT cell viability / proliferation assay, MDA-MB-231
- Assay type: cell-based
- experimental.conditions: Homo sapiens, MDA-MB-231, MDA-MB-231 cells, combined with SAHA; read-out: IC50 of letrozole for cell growth inhibition
readout: pIC50
# reply with the number alone; pIC50 is -log10 of concentration in mol/L

# get_value(readout='pIC50', item= N#Cc1ccc(C(c2ccc(C#N)cc2)n2cncn2)cc1 )
5.95

* * *

- Test system: ER- MDA-MB-231 cells
- experiment.description: MTT cell viability / proliferation assay, MDA-MB-231
- Format: cell-based
- experimental.conditions: Homo sapiens, MDA-MB-231, MDA-MB-231 cells, single agent; read-out: IC50, inhibition of cell growth
readout: pIC50
The quantity pIC50 is defined as the negative base-10 logarithm of the molar concentration.

For the molecule shown here, CCCC(=O)O , give the reported pIC50.
1.69
